Test system: Crude diglycosidase
Experiment: Examination of temperature in the conversion into isoflavone aglycons by diglycosidase using soybean materials
Assay type: biochemical, Penicillium multicolor IAM7153
Design: concentration or dose not given beside the values
Settings: 80 °C; heat treatment of enzyme: no; 3 h
Protocol: Into 400 μL of 20 mM acetate buffer of pH 4.0 was suspended 50 mg of each of various soybean materials (roasted soy flour (manufactured by Fuji Shokuryo K.K.), soymilk (manufactured by Gitoh Shokuhin K.K.), defatted soybean (manufactured by Fuji Seiyu K.K.), concentrated soybean protein (manufactured by Fuji Seiyu K.K.)), whereby a substrate solution was prepared. Crude diglycosidase was diluted with 20 mM acetate buffer of pH 4.0 to be the glycosidase activity of 1.88 AU/mL. […]
In this section we review reported Decomposition efficiency of glycitin family in roasted soy flour values for a set of molecules.
Your answer should be a plain number; it is taken to be in %.

See these solved cases before continuing.
MOLECULE	TEST RESULT
COc1cc2c(=O)c(-c3ccc(O)cc3)coc2cc1O [glycitein]	41.1
COc1cc2c(=O)c(-c3ccc(O)cc3)coc2cc1O[C@@H]1O[C@H](COC(C)=O)[C@@H](O)[C@H](O)[C@H]1O [acetylglycitin, 6″-O-acetylglycitin]	38.4

# next molecule below
Tell me Decomposition efficiency of glycitin family in roasted soy flour reported for COc1cc2c(=O)c(-c3ccc(O)cc3)coc2cc1O[C@@H]1O[C@H](CO)[C@@H](O)[C@H](O)[C@H]1O [glycitin]
20.5

----------
tested on: Crude diglycosidase; experiment: Examination of substrate concentration in the conversion into isoflavone aglycons by diglycosidase using soybean materials; assay type: biochemical, Penicillium multicolor IAM7153; conditions: defatted soybean, substrate concentration 5%, heat treatment of enzyme no, reaction time 0 h;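 note: percent of the isoflavone family total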
MEASUREMENT NAME: Decomposition efficiency: ratio of each glycoside/aglycon within its isoflavone family (%)
Your answer should be a plain number; it is taken to be in %.

Report value: Decomposition efficiency: ratio of each glycoside/aglycon within its isoflavone family, system: Crude diglycosidase, compound: COc1cc2c(=O)c(-c3ccc(O)cc3)coc2cc1O[C@@H]1O[C@H](COC(=O)CC(=O)O)[C@@H](O)[C@H](O)[C@H]1O
58.4

Report value: Decomposition efficiency: ratio of each glycoside/aglycon within its isoflavone family, system: Crude diglycosidase, compound: COc1cc2c(=O)c(-c3ccc(O)cc3)coc2cc1O
41.6

----------
In this section we review reported Decomposition efficiency of glycitin family in soymilk values for a set of compounds.
tested on: Crude diglycosidase; test: Examination of temperature in the conversion into isoflavone aglycons by diglycosidase using soybean materials; assay type: biochemical, Penicillium multicolor IAM7153; details: 80 °C; heat treatment of enzyme: yes; 6 h

COMPOUND	TEST RESULT
COc1cc2c(=O)c(-c3ccc(O)cc3)coc2cc1O[C@@H]1O[C@H](COC(=O)CC(=O)O)[C@@H](O)[C@H](O)[C@H]1O [malonylglycitin, 6″-O-malonylglycitin]	19.3%

Tell me Decomposition efficiency of glycitin family in soymilk reported for COc1cc2c(=O)c(-c3ccc(O)cc3)coc2cc1O[C@@H]1O[C@H](CO)[C@@H](O)[C@H](O)[C@H]1O [glycitin]
71.4%

Tell me Decomposition efficiency of glycitin family in soymilk reported for COc1cc2c(=O)c(-c3ccc(O)cc3)coc2cc1O [glycitein]
9.3%

----------
system: Crude diglycosidase; experiment: Examination of pH in the conversion into isoflavone aglycons by diglycosidase using soybean materials; type: biochemical, Penicillium multicolor IAM7153; parameters: concentration or dose not given beside the values; details: pH5.4; heat treatment of enzyme: yes; reaction time 6 h
In this section we review reported Decomposition efficiency of daidzin family in defatted soybean values for a set of molecules.
Your answer should be a plain number; it is taken to be in %.

MOLECULE	SYSTEM TESTED	TEST RESULT
O=C(O)CC(=O)OC[C@H]1O[C@@H](Oc2ccc3c(=O)c(-c4ccc(O)cc4)coc3c2)[C@H](O)[C@@H](O)[C@@H]1O [malonyldaidzin, 6″-O-malonyldaidzin]	Crude diglycosidase	44.9

# next molecule below
Tell me Decomposition efficiency of daidzin family in defatted soybean reported for O=c1c(-c2ccc(O)cc2)coc2cc(O)ccc12 [daidzein]
55.1

----------
system: Crude diglycosidase; assay: Examination of pH in the conversion into isoflavone aglycons by diglycosidase using soybean materials; type: biochemical, Penicillium multicolor IAM7153; conditions: pH2.6; heat treatment of enzyme: no; reaction time 6 h
MEASUREMENT NAME: Decomposition efficiency of glycitin family in defatted soybean

COMPOUND	TEST RESULT
COc1cc2c(=O)c(-c3ccc(O)cc3)coc2cc1O [glycitein]	not detected
COc1cc2c(=O)c(-c3ccc(O)cc3)coc2cc1O[C@@H]1O[C@H](COC(=O)CC(=O)O)[C@@H](O)[C@H](O)[C@H]1O [malonylglycitin, 6″-O-malonylglycitin]	100.0%
COc1cc2c(=O)c(-c3ccc(O)cc3)coc2cc1O[C@@H]1O[C@H](COC(C)=O)[C@@H](O)[C@H](O)[C@H]1O [acetylglycitin, 6″-O-acetylglycitin]	not detected
COc1cc2c(=O)c(-c3ccc(O)cc3)coc2cc1O[C@@H]1O[C@H](CO)[C@@H](O)[C@H](O)[C@H]1O [glycitin]	not detected

----------
tested on: Crude diglycosidase; test: Examination of pH in the conversion into isoflavone aglycons by diglycosidase using soybean materials; format: biochemical, Penicillium multicolor IAM7153; conditions: pH2.6; heat treatment of enzyme: no; reaction time 1 h
MEASUREMENT NAME: Decomposition efficiency of glycitin family in defatted soybean

SUBSTANCE SMILES	TEST RESULT
COc1cc2c(=O)c(-c3ccc(O)cc3)coc2cc1O	not detected
COc1cc2c(=O)c(-c3ccc(O)cc3)coc2cc1O[C@@H]1O[C@H](CO)[C@@H](O)[C@H](O)[C@H]1O	not detected
COc1cc2c(=O)c(-c3ccc(O)cc3)coc2cc1O[C@@H]1O[C@H](COC(C)=O)[C@@H](O)[C@H](O)[C@H]1O	not detected
COc1cc2c(=O)c(-c3ccc(O)cc3)coc2cc1O[C@@H]1O[C@H](COC(=O)CC(=O)O)[C@@H](O)[C@H](O)[C@H]1O	100.0%

----------
test system: Crude diglycosidase; assay: Examination of pH in the conversion into isoflavone aglycons by diglycosidase using soybean materials; assay type: biochemical, Penicillium multicolor IAM7153; set-up: concentration or dose not given beside the values; settings: pH4.8; heat treatment of enzyme: yes; reaction time 6 h
MEASUREMENT NAME: Decomposition efficiency of daidzin family in defatted soybean

See these solved cases before continuing.
COMPOUND	SYSTEM TESTED	TEST RESULT
O=C(O)CC(=O)OC[C@H]1O[C@@H](Oc2ccc3c(=O)c(-c4ccc(O)cc4)coc3c2)[C@H](O)[C@@H](O)[C@@H]1O [malonyldaidzin, 6″-O-malonyldaidzin]	Crude diglycosidase	38.4%
O=c1c(-c2ccc(O)cc2)coc2cc(O[C@@H]3O[C@H](CO)[C@@H](O)[C@H](O)[C@H]3O)ccc12 [daidzin]	Crude diglycosidase	37.1%

# next compound below
Tell me Decomposition efficiency of daidzin family in defatted soybean reported for O=c1c(-c2ccc(O)cc2)coc2cc(O)ccc12 [daidzein]
24.5%

----------
system: Crude diglycosidase; assay: Examination of pH in the conversion into isoflavone aglycons by diglycosidase using soybean materials; type: biochemical, Penicillium multicolor IAM7153; conditions: pH3.5, heat treatment of enzyme no, reaction time 0 h, 55° C.
In this section we review reported Decomposition efficiency of glycitin family in soymilk values for a set of molecules.
Write the value as a bare number.

See these solved cases before continuing.
SUBSTANCE SMILES	TEST RESULT
COc1cc2c(=O)c(-c3ccc(O)cc3)coc2cc1O[C@@H]1O[C@H](CO)[C@@H](O)[C@H](O)[C@H]1O	50.2
COc1cc2c(=O)c(-c3ccc(O)cc3)coc2cc1O[C@@H]1O[C@H](COC(=O)CC(=O)O)[C@@H](O)[C@H](O)[C@H]1O	42.6

# next molecule below
Tell me Decomposition efficiency of glycitin family in soymilk reported for COc1cc2c(=O)c(-c3ccc(O)cc3)coc2cc1O
7.2

----------
test system: Crude diglycosidase; test: Examination of temperature in the conversion into isoflavone aglycons by diglycosidase using soybean materials; type: biochemical, Penicillium multicolor IAM7153; details: 55 °C; heat treatment of enzyme: no; 1 h
MEASUREMENT NAME: Decomposition efficiency of glycitin family in concentrated soybean protein (%)
Your answer should be a plain number; it is taken to be in %.

See these solved cases before continuing.
SUBSTANCE SMILES	SYSTEM TESTED	TEST RESULT
COc1cc2c(=O)c(-c3ccc(O)cc3)coc2cc1O[C@@H]1O[C@H](CO)[C@@H](O)[C@H](O)[C@H]1O	Crude diglycosidase	14.2
COc1cc2c(=O)c(-c3ccc(O)cc3)coc2cc1O	Crude diglycosidase	51.4
COc1cc2c(=O)c(-c3ccc(O)cc3)coc2cc1O[C@@H]1O[C@H](COC(=O)CC(=O)O)[C@@H](O)[C@H](O)[C@H]1O	Crude diglycosidase	0.5

# next compound below
Tell me Decomposition efficiency of glycitin family in concentrated soybean protein reported for COc1cc2c(=O)c(-c3ccc(O)cc3)coc2cc1O[C@@H]1O[C@H](COC(C)=O)[C@@H](O)[C@H](O)[C@H]1O
33.9
